Data credit: paper PMC9157191

Test: Drug concentrations in Rhesus macaque vaginal tissue explants (LC-MS/MS)
Type: in vitro ADME, Rhesus macaque (Macaca mulatta)
Settings: monkey, vaginal tissue explants, Rh. macaque vaginal explants; Single gel, High [ ]: TFV 70 µM or MVC […]; 3 h exposure; read-out: Cmax
parameter: Cmax

INSERT INTO assay_data (moleculesmiles, valueobserved) VALUES
  ('C[C@H](Cn1cnc2c(N)ncnc21)OCP(=O)(O)O', '1370 ng/g');

----------
Assay: Drug concentrations in human colorectal tissue explants (LC-MS/MS)
Type: in vitro ADME
Conditions: human, colorectal tissue explants, Human colorectal explants; Comb. gel, Low [ ]: TFV 7 µM + MVC […]; 3 h exposure; read-out: Cmax
parameter: Cmax (ng/g)

INSERT INTO results (moleculesmiles, readoutunits, valueobserved) VALUES
  ('C[C@H](Cn1cnc2c(N)ncnc21)OCP(=O)(O)O', 'ng/g', 1170);

----------
Assay: Drug concentrations in Rhesus macaque colorectal tissue explants (LC-MS/MS)
Assay type: in vitro ADME, Rhesus macaque (Macaca mulatta)
Conditions: monkey, colorectal tissue explants, Rh. macaque colorectal explants; Comb. gel, High [ ]: TFV 70 µM + MVC […]; 3 h exposure; read-out: Cmax
parameter: Cmax (ng/g)

INSERT INTO assay_data (compound, parameter, valueobserved) VALUES
  ('C[C@H](Cn1cnc2c(N)ncnc21)OCP(=O)(O)O [TFV, Tenofovir]', 'Cmax', 44200);

----------
Assay: Drug concentrations in Rhesus macaque colorectal tissue explants (LC-MS/MS)
Format: in vitro ADME, Rhesus macaque (Macaca mulatta)
Conditions: monkey, colorectal tissue explants, Rh. macaque colorectal explants; Single gel, Low [ ]: TFV 7 µM or MVC […]; 3 h exposure; read-out: Cmax
parameter: Cmax

INSERT INTO assay_data (compound, parameter, valueobserved) VALUES
  ('C[C@H](Cn1cnc2c(N)ncnc21)OCP(=O)(O)O [TFV, Tenofovir]', 'Cmax', '2980 ng/g');
